In this section, each of the binders is paired with its reported pKd.
target: T1, Recombinant human EGFR (human, UniProt P00533 25-645, limits assumed); experiment: SPR, EGFR immobilized, peptide as analyte, 1:1 model
T1 construct: Immobilized by amine coupling on a carboxymethyl dextran SPR chip; also called epidermal growth factor receptor; surface-immobilized EGFR
Where no end group is shown, it is not given here.
Reminder that pKd is minus the log10 of a molar concentration.

# example entries with known answers
>  <BINDER>
WSGENGPGFYDYEA (not fully specified, Designed cetuximab mimic peptide for EGFR; Unlabelled in SPR; also called EGFR-PEP11; FITC-Pep11) [Pep11]

>  <ASSAY METRIC>
pKd

>  <RESULT NUMBER>
6.60

$$$$
>  <BINDER>
WSGENGPGTFYDYEA (also called EGFR-PEP22; No. 22) [Pep22]

>  <ASSAY METRIC>
pKd

>  <RESULT NUMBER>
6.23

$$$$
>  <BINDER>
WSGENGPGYFDYEA (Designed cetuximab mimic peptide for EGFR, made by synthesis; also called No. 6) [Pep6]

>  <ASSAY METRIC>
pKd

>  <RESULT NUMBER>
5.32

$$$$

Okay, now this binder:
So what does the record say about pKd for AEYDFYGPGNEGSW (also called No. 24) [Pep24] ?
5.14

Attribution: patent US20170101474A1
